Task for the reader: assign each of the following molecules its reported pKi.
biological target: human A3 receptors (hA3) (Homo sapiens, UniProt P0DMS8); construct: expressed in transfected cells; host or cells: HEK-293; experiment: Displacement of [125I]ABA binding at human A3 receptors expressed in HEK-293 cells; conditions: Table 1; [125I]ABA, HEK-293; read-out: hA3 Ki or IC50
Sequence (P0DMS8 whole entry): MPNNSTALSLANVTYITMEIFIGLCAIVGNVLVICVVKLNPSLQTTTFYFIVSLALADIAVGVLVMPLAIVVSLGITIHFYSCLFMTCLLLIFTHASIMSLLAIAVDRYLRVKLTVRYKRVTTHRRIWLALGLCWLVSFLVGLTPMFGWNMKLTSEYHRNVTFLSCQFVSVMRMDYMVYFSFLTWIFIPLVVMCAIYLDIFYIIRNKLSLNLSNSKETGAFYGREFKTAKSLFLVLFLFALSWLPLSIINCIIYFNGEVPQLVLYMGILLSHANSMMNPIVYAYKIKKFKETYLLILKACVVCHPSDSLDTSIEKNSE
One number for each entry, as −log10 of the molar value.

Example entries and their recorded answers appear below.
[[record]]
molecule = "O=C(O)C=Cc1ccc(-c2nc3c([nH]2)c(=O)n(CC2CCCCC2)c(=O)n3CC2CCCCC2)cc1 [Compound 9]"
property = "pKi"
value_observed = 6.04

[[record]]
molecule = "C=CCn1c(=O)c2[nH]c(-c3ccc(OCC(=O)O)cc3)nc2n(CC=C)c1=O [Compound 5]"
property = "pKi"
value_observed = 6.09

[[record]]
molecule = "CCCn1c(=O)c2[nH]c(-c3ccc(OCC(=O)O)cc3)nc2n(CCC)c1=O [Compound 4a]"
property = "pKi"
value_observed = 5.41

[[record]]
molecule = "CCCCn1c(=O)c2[nH]c(-c3ccc(OCC(=O)O)cc3)nc2n(CCCC)c1=O [Compound 6]"
property = "pKi"
value_observed = 7.04

[[record]]
molecule = "CCCn1c(=O)c2[nH]c(-c3ccc(C=CC(=O)O)cc3)nc2n(CCC)c1=O [Compound 8]"
property = "pKi"
value_observed = 7.52


# evaluate next
// query pKi value for entry CCCn1c(=O)c2[nH]c(-c3ccc(OCC(=O)ON4C(=O)CCC4=O)cc3)nc2n(CCC)c1=O [Compound 4b]
6.64
